Target: T1, recombinant HMG1 purified from E. coli as a calmodulin binding protein (CBP) fusion protein (human, UniProt A9RA84 1-215 (Papio anubis entry))
T1 sequence: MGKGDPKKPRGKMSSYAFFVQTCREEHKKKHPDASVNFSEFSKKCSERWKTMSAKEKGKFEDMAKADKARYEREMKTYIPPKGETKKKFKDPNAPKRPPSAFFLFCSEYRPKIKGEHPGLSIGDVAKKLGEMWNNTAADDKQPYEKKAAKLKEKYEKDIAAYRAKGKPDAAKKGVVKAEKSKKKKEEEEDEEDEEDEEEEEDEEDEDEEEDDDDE
Assay: cell-based or functional assay
measurement.kind: IC50, inhibition of rHMG1 stimulated TNF-α release from human PBMC (µg/mL)

{"binder": "anti-HMG1 antibody S14 (antibody, V domains shown) VH: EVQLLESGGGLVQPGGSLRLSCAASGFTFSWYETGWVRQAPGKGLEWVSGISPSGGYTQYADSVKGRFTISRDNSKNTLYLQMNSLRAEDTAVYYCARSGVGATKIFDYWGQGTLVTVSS VL: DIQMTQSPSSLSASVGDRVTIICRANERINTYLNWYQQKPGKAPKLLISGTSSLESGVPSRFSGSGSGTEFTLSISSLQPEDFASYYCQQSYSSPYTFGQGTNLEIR", "unit.abbreviation": "µg/mL", "observed": 0.0662}
{"binder": "anti-HMG1 antibody G2 (antibody, V domains shown) VH: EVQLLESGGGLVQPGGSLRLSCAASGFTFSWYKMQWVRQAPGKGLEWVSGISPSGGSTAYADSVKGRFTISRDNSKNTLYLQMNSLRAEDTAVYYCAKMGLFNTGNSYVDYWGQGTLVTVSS VL: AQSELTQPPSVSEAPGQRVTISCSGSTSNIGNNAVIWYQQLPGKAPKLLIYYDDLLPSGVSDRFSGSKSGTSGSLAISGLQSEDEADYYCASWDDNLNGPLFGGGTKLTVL", "unit.abbreviation": "µg/mL", "observed": 1.35}
{"binder": "anti-HMG1 antibody G4 (antibody, V domains shown, also called ATCC PTA-6258) VH: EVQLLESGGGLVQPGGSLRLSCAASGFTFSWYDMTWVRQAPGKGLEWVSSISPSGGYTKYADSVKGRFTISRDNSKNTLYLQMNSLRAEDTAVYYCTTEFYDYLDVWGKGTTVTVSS VL: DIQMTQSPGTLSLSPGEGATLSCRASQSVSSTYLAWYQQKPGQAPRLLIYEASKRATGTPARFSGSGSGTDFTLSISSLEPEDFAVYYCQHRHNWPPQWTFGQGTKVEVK", "unit.abbreviation": "µg/mL", "observed": 5.51}
